- runDescription: Fluorescence titration of VEPEP-4 binding to small molecule cargo
- recordedConditions: cargo FAM-guanosine
- Method: Fluorescence experiments were performed on a PTI spectrofluorimeter at 25° C. in a NaCl 154 mM buffer. Intrinsic Trp-fluorescence of VEPEP-4 was excited at 290 nm and emission spectrum was recorded between 310 and 400 nm, with a spectral band-pass of 2 and 8 nm for excitation and emission, respectively. FITC-fluorescence of labelled-peptide was excited at 492 nm and emission recorded between 500 and 580 nm. […]
pKd: −log10 of the molar value. *1 amine or outer side, *2 acyl side, *3 side chain or, on linkers, in order; H or OH if unused. Where a SMILES comes first, the peptide text is derived from it. [ ]: non-standard residue; d: D form. Cysteamide = C(CS[*:3])N[*:1]; βAla = NCCC(=O)O
metricName: pKd

compound	observed
CC(=O)NCCC(=O)N[C@@H](Cc1c[nH]c2ccccc12)C(=O)N[C@@H](Cc1ccccc1)C(=O)N[C@@H](CCCNC(=N)N)C(=O)N[C@@H](CC(C)C)C(=O)N[C@@H](CO)C(=O)N[C@@H](CC(C)C)C(=O)N[C@@H](CCCNC(=N)N)C(=O)N[C@@H](Cc1ccccc1)C(=O)N[C@@H](Cc1c[nH]c2ccccc12)C(=O)NCCS [Short 4, X1WFRLSLRFW] (Ac-[βAla]WFRLSLRFW-Cysteamide)	7.15
CC(=O)NCCC(=O)N[C@@H](Cc1c[nH]c2ccccc12)C(=O)N[C@@H](Cc1ccccc1)C(=O)N[C@@H](CCCNC(=N)N)C(=O)N[C@@H](CC(C)C)C(=O)N[C@@H](CO)C(=O)N[C@@H](CC(C)C)C(=O)N[C@@H](CCCNC(=N)N)C(=O)N[C@@H](Cc1ccccc1)C(=O)N[C@@H](Cc1c[nH]c2ccccc12)C(=O)N[C@@H](CCCNC(=N)N)C(=O)NCCS [VEPEP-3j, X1WFRLSLRFWR] (Ac-[βAla]WFRLSLRFWR-Cysteamide)	7.30
CC(=O)NCCC(=O)N[C@@H](Cc1c[nH]c2ccccc12)C(=O)N[C@@H](Cc1c[nH]c2ccccc12)C(=O)N[C@@H](CCCNC(=N)N)C(=O)N[C@@H](CC(C)C)C(=O)N[C@@H](CO)C(=O)N[C@@H](CC(C)C)C(=O)N[C@@H](CCCNC(=N)N)C(=O)N[C@@H](Cc1c[nH]c2ccccc12)C(=O)N[C@@H](Cc1c[nH]c2ccccc12)C(=O)NCCS [VEPEP-3i, X1WWRLSLRWW] (Ac-[βAla]WWRLSLRWW-Cysteamide)	7.22
CC(=O)NCCC(=O)N[C@@H](Cc1c[nH]c2ccccc12)C(=O)N[C@@H](Cc1c[nH]c2ccccc12)C(=O)N[C@@H](CCCNC(=N)N)C(=O)N[C@@H](CC(C)C)C(=O)N[C@@H](CCCNC(=N)N)C(=O)N[C@@H](CO)C(=O)N[C@@H](Cc1c[nH]c2ccccc12)C(=O)N[C@@H](Cc1ccccc1)C(=O)N[C@@H](CCCNC(=N)N)C(=O)NCCS [Short 3, X1WWRLRSWFR] (Ac-[βAla]WWRLRSWFR-Cysteamide)	7.00

Data provenance is patent US9834581B2.
